# EXPERIMENTAL_TARGET: recombinant human CL receptor/RAMP1 (Homo sapiens (Human), UniProt O60894+Q16602)
# Sequence (Q16602 23-461): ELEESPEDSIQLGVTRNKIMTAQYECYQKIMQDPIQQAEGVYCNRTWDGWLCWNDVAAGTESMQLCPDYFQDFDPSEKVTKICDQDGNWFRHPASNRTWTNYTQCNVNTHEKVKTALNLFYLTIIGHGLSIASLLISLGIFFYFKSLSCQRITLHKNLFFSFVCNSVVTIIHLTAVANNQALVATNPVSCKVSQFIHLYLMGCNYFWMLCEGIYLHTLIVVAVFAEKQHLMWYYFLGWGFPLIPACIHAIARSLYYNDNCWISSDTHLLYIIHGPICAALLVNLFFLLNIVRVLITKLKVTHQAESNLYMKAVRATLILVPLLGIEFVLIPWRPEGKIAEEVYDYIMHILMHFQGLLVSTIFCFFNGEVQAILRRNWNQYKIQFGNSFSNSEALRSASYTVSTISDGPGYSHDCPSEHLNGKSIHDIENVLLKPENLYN
# Sequence (O60894 27-148): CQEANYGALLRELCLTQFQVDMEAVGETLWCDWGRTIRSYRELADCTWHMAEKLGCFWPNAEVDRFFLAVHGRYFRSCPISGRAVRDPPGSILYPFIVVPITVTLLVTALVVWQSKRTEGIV
# PROTOCOL: Recombinant receptor binding assay (125I-hCGRP)
# REPORTED_CONDITIONS: membranes of HEK 293 cells expressing human CL receptor/RAMP1, 10 pM 125I-hCGRP
ASSAY_METRIC: pKi
// scale note: pKi = -log10(conc_M); give the bare number

O=C1NC2(CCCC2)CN(Cc2ccc3cc4c(cc3n2)C[C@]2(C4)C(=O)Nc3ncccc32)C1Cc1ccccc1 (stereo partly shown) [Example 87] | 9.47
O=C1Nc2ncccc2[C@@]12Cc1cc3ccc(CN4CCNCC4)nc3cc1C2 [Example 76] | 9.14
O=C1CC2(CCN(Cc3ccc4cc5c(cc4n3)CC3(C5)C(=O)Nc4ncccc43)CC2)Oc2ccccc21 (stereo not shown) [Example 114] | 4.82
CC1(Cc2ccccc2)C(=O)NC2(CCCC2)CN1Cc1ccc2cc3c(cc2n1)C[C@]1(C3)C(=O)Nc2ncccc21 (stereo partly shown) [Example 95] | 7.77
O=C1NC2(CCCC2)CN(Cc2ccc3cc4c(cc3n2)C[C@]2(C4)C(=O)Nc3ncccc32)[C@@H]1Cc1ccccc1 [Example 88] | 8.59
CC1(C)CN(Cc2ccc3cc4c(cc3n2)C[C@]2(C4)C(=O)Nc3ncccc32)[C@@H](Cc2ccccc2)C(=O)N1 [Example 3] | 9.11

In: Supply recorded pKi for CN1C(=O)NC(=O)C12Cc1cc3ccc(CN4CCC(Cc5ccccc5)CC4)nc3cc1C2 (racemic) [Example 7] here.
Out: 5.42

In: Supply recorded pKi for O=C1NC2(CCCC2)CN(Cc2ccc3cc4c(cc3n2)C[C@]2(C4)C(=O)Nc3ncccc32)C1c1ccccc1 (stereo partly shown) [Example 69] here.
Out: 7.37

In: Supply recorded pKi for O=C1N[C@H](Cc2ccccc2)CN(Cc2ccc3cc4c(cc3n2)C[C@]2(C4)C(=O)Nc3ncccc32)C1c1ccccc1 (stereo partly shown) [Example 84] here.
Out: 9.14

###

# EXPERIMENTAL_TARGET: recombinant human CL receptor/RAMP1 (Homo sapiens (Human), UniProt O60894+Q16602)
# PROTOCOL: Recombinant receptor binding assay (125I-hCGRP)
# REPORTED_CONDITIONS: membranes of HEK 293 cells expressing human CL receptor/RAMP1, 10 pM 125I-hCGRP
ASSAY_METRIC: pKi
// scale note: pKi = -log10(conc_M); give the bare number

Previously resolved entries follow.
O=C1Nc2ncccc2C12Cc1cc3ccc(CN4CCc5c([nH]c6ccccc56)C4)nc3cc1C2 (stereo not shown) | 6.74
O=C1Nc2ncccc2[C@@]12Cc1cc3ccc(CN4CCNCC4c4ccccc4)nc3cc1C2 (stereo partly shown) | 8.18
CC(C)(C)OC(=O)N1CCN(Cc2ccc3cc4c(cc3n2)C[C@]2(C4)C(=O)Nc3ncccc32)CC1c1ccccc1 (stereo partly shown) | 7.24

For the next question, use this compound.
In: Supply recorded pKi for `CN1C(=O)NC(=O)[C@]12Cc1cc3ccc(CN4C(=O)C(C)(C)Nc5ccccc54)nc3cc1C2` here.
Out: 7.46
